- SYSTEM UNDER TEST: IRAK-M (Homo sapiens, UniProt Q9Y616)
- Sequence (Q9Y616 whole entry): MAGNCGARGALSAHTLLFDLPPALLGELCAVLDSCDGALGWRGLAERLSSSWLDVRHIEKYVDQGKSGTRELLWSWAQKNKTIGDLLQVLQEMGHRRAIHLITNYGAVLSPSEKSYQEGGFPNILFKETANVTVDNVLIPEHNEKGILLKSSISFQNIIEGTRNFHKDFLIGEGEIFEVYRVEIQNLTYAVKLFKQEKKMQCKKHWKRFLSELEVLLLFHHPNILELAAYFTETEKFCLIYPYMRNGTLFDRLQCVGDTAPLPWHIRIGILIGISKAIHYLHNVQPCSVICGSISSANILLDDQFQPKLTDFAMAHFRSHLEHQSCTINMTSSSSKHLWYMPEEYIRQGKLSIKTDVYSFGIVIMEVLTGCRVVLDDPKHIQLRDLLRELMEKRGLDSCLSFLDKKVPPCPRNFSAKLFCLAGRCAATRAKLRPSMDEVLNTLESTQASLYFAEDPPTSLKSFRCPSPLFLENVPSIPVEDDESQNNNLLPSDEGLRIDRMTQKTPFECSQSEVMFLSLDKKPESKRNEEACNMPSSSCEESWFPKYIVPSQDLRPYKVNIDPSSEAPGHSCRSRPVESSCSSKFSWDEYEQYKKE
- TEST DESCRIPTION: IRAK-M binding inhibitory activity (KINOMEscan active site-dependent competitive assay)
- Set-up: purchased Eurofins Discover X
- ASSAY CONTEXT: concentration of the test compound 1 μM; first symbol of cell; read-out: IRAK-M binding inhibition activity % Ctrl
Reported remaining binding at 1 µM values for the following molecules.
ASSAY METRIC: remaining binding at 1 µM

1. O=S(=O)(c1cccnc1)N1CCC(Oc2ncnc3ccsc23)CC1    25 to 50%
2. Ic1cc2ncnc(OC3CCSCC3)c2s1    ≥ 75%
3. CN[C@@H](C)C(=O)N[C@H](C(=O)N1CCN(C(=O)c2cc3c(OCCOCCOCCOCCOc4cc(CN5CCC(Oc6ccnc7ccsc67)CC5)on4)c(F)c(F)cc3n2C)CC1)C1CCCCC1    < 25%
4. O=S(=O)(c1cccc(F)c1)N1CCC(Oc2ncnc3ccsc23)CC1    25 to 50%
5. Cc1ccc(NS(=O)(=O)c2ccc(CNC(=O)COCCOCCOCCOc3cc(CN4CCC(Oc5ccnc6ccsc56)CC4)on3)cc2)c2[nH]cc(C#N)c12    25 to 50%
6. O=S(=O)(c1ccc(Cl)cc1)N1CCC(Oc2ncnc3ccsc23)CC1    < 25%
7. O=S(=O)(c1c(F)cccc1F)N1CCC(Oc2ncnc3ccsc23)CC1    25 to 50%
8. CN[C@@H](C)C(=O)N[C@@H](Cn1cccn1)C(=O)N1CCN(C(=O)c2c(C(=O)N(C)CCOCCOCCOc3cc(CN4CCC(Oc5ccnc6ccsc56)CC4)on3)c3cc(F)ccc3n2C)CC1    25 to 50%
9. CN[C@@H](C)C(=O)N[C@H](C(=O)N1CCN(C(=O)c2c(C(=O)N(C)CCOCCOCCOc3cc(CN4CCC(Oc5ccnc6ccsc56)CC4)on3)c3cc(F)c(F)cc3n2C)C[C@H]1C)C1CCCCC1    < 25%
10. FC(F)(F)c1ncccc1Nc1ncnc2ccsc12    50 to 75%
11. CN[C@@H](C)C(=O)N[C@H](C(=O)N1CCN(C(=O)c2cc3cc(F)c(F)cc3n2CCOCCOCCOCCOc2cc(CN3CCC(Oc4ccnc5ccsc45)CC3)on2)CC1)C1CCCCC1    < 25%
12. CN[C@@H](C)C(=O)N[C@H](C(=O)N1CCN(C(=O)c2c(Cl)c3ccccc3n2CC(=O)N2CCC[C@H]2COc2cc(CN3CCC(Oc4ccnc5ccsc45)CC3)on2)CC1)C1CCCCC1    25 to 50%
13. CN[C@@H](C)C(=O)N[C@H](C(=O)N1CCN(C(=O)c2ccc3c(c2)cc(C)n3CCOCCOc2cc(CN3CCC(Oc4ccnc5ccsc45)CC3)on2)CC1)C1CCCCC1    25 to 50%
